The measurements presented in this section are drawn from patent US20230138729A1.

# measurement.target: Recombinant human GLB1 (rhGLB1) (Homo sapiens, UniProt P16278)
# Sequence (P16278 29-677): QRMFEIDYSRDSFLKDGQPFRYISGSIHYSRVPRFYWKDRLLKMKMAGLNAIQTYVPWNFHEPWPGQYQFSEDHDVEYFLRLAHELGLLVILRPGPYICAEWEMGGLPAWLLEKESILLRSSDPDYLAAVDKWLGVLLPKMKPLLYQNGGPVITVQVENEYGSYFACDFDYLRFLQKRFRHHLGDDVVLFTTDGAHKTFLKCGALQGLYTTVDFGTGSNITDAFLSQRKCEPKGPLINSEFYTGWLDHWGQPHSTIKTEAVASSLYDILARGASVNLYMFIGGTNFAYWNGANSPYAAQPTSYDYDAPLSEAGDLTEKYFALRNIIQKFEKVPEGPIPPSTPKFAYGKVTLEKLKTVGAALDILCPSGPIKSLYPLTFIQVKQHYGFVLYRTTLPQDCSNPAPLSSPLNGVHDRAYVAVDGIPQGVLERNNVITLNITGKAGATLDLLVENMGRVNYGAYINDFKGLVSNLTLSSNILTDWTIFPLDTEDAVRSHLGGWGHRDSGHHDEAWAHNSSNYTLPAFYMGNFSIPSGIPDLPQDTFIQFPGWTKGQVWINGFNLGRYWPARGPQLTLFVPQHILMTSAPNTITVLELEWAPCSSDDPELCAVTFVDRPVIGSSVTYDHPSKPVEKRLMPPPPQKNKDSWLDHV
# procedure.summary: Enzymatic hydrolysis by recombinant human GLB1 (fluorescence reaction velocity)
# Type: biochemical
# setup.conditions: compound 500 uM, pH 4.4 McIlvaine Buffer, 37° C.

[
  {
    "molecule": "Cc1cc(=O)oc2cc(O[C@@H]3O[C@H](CO)[C@H](O)[C@H](F)[C@H]3O)ccc12",
    "measurement.target": "Recombinant human GLB1 (rhGLB1) (Homo sapiens, UniProt P16278)",
    "rhGLB1 substrate": "yes"
  },
  {
    "molecule": "Cc1cc(=O)oc2cc(O[C@@H]3O[C@H](CO)[C@H](O)[C@H](O)[C@H]3O)ccc12 [MU-Gal, reference compound]",
    "measurement.target": "Recombinant human GLB1 (rhGLB1) (Homo sapiens, UniProt P16278)",
    "rhGLB1 substrate": "yes"
  },
  {
    "molecule": "Cc1cc(=O)oc2cc(O[C@@H]3O[C@H](CO)C[C@H](O)[C@H]3O)ccc12",
    "measurement.target": "Recombinant human GLB1 (rhGLB1) (Homo sapiens, UniProt P16278)",
    "rhGLB1 substrate": "yes"
  },
  {
    "molecule": "Cc1cc(=O)oc2cc(O[C@@H]3O[C@H](CO)[C@H](O)C[C@H]3O)ccc12",
    "measurement.target": "Recombinant human GLB1 (rhGLB1) (Homo sapiens, UniProt P16278)",
    "rhGLB1 substrate": "yes"
  },
  {
    "molecule": "Cc1cc(=O)oc2cc(O[C@@H]3O[C@@H](C)[C@@H](O)[C@@H](O)[C@@H]3O)ccc12 [Compound 14, reference compound]",
    "measurement.target": "Recombinant human GLB1 (rhGLB1) (Homo sapiens, UniProt P16278)",
    "rhGLB1 substrate": "yes"
  }
]

----------
# measurement.target: Recombinant human FUCA1 (rhFUCA1) (Homo sapiens)
# Sequence (P04066 32-466): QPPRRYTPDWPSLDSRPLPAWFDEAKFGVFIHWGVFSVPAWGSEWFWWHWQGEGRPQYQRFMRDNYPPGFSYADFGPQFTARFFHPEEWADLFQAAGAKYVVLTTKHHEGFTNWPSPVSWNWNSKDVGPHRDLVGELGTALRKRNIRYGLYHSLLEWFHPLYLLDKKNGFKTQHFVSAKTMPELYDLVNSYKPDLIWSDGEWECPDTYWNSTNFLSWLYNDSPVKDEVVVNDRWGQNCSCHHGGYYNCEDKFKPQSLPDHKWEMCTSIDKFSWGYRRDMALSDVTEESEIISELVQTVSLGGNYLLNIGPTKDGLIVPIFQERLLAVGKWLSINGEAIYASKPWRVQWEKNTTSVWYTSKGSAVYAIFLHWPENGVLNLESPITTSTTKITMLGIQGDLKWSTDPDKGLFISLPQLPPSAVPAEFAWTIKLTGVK
# procedure.summary: Enzymatic hydrolysis by recombinant human FUCA1 (fluorescence reaction velocity)
# Format: biochemical
# setup.conditions: compound 500 uM, pH 4.4 McIlvaine Buffer, 37° C.

[
  {
    "compound": "Cc1cc(=O)oc2cc(NC(=O)OCc3ccc(NC(=O)O[C@@H]4O[C@@H](C)[C@@H](O)[C@@H](O)[C@@H]4O)cc3)ccc12 [Compound 59]",
    "rhFUCA1 substrate": "yes"
  },
  {
    "compound": "Cc1cc(=O)oc2cc(O[C@H]3C[C@H](O)[C@H](O)[C@H](C)O3)ccc12 [Compound 19]",
    "rhFUCA1 substrate": "yes"
  },
  {
    "compound": "Cc1cc(=O)oc2cc(O[C@@H]3O[C@@H](C)[C@@H](O)[C@@H](O)[C@@H]3O)ccc12 [Compound 14, reference compound]",
    "rhFUCA1 substrate": "yes"
  },
  {
    "compound": "COc1ccc(C2O[C@H]3[C@H](O)[C@H](Oc4ccc5c(C)cc(=O)oc5c4)O[C@@H](C)[C@H]3O2)cc1 (some centres unmarked) [Compound 43]",
    "rhFUCA1 substrate": "yes"
  },
  {
    "compound": "Cc1cc(=O)oc2cc(NC(=O)OCc3ccc(O[C@@H]4O[C@@H](C)[C@@H](O)[C@@H](O)[C@@H]4O)cc3)ccc12 [Compound 50]",
    "rhFUCA1 substrate": "yes"
  }
]
